# Test system: CCRIS mutagenicity, Ames/micronucleus/aberration tests
# methodSummary: CCRIS mutagenicity studies
# measurementSetup: Test System: AMES SALMONELLA TYPHIMURIUM; Strain/Indicator: TA1535; Metabolic Activation: NONE; Method: STANDARD PLATE
# Description: The CCRIS database contains chemical records with carcinogenicity, mutagenicity, tumor promotion, and tumor inhibition test results. It was developed by the National Cancer Institute (NCI). Data are derived from studies cited in primary journals, current awareness tools, NCI reports, and other sources. Test results have been reviewed by experts in carcinogenesis and mutagenesis. CCRIS provides historical information from the years 1985 - 2011. It is no longer updated. […]
Activity calls are given as the source filed them. No rule for the calls is given here.
One label from this list, please: active, inactive

## Task Recorded test outcome, item CC(Cl)CCl (stereo not given)
## Result active

## Task What is the recorded call for this compound in the test? CCN(C)C(=O)Oc1ccc2c(c1)C1(C)CCN(C)C1N2C (stereo not given)
## Result inactive

New cases:
## Task Hey, what did the test say about Nc1nc2ccc([N+](=O)[O-])cc2s1 ?
## Result inactive

## Task Record request — test call for CCCCC1CO1 (stereo not given)
## Result inactive

## Task Hi, sorry to bother you, what did the test record for C#C[C@]1(O)CC[C@H]2[C@@H]3CCc4cc(OC)ccc4[C@H]3CC[C@@]21C ?
## Result inactive

## Task Hello, I am checking results. What call was entered for Fc1ccccc1-c1ccccc1 ?
## Result inactive

====

# System: CCRIS mutagenicity, Ames/micronucleus/aberration tests
# methodSummary: CCRIS mutagenicity studies
# measurementSetup: Test System: AMES SALMONELLA TYPHIMURIUM; Strain/Indicator: TA98; Metabolic Activation: RAT, LIVER, S-9, PCB; Method: STANDARD PLATE
# Description: The CCRIS database contains chemical records with carcinogenicity, mutagenicity, tumor promotion, and tumor inhibition test results. It was developed by the National Cancer Institute (NCI). Data are derived from studies cited in primary journals, current awareness tools, NCI reports, and other sources. Test results have been reviewed by experts in carcinogenesis and mutagenesis. CCRIS provides historical information from the years 1985 - 2011. It is no longer updated. […]
The source made the active and inactive calls. No rule for the calls is given here.
Lab note: assign the record to one of yes (1) (active), no (0) (inactive)

## Task Give the logged outcome of this assay for the following compound: c1ccc2c(c1)cnc1ccccc12
## Result yes (1)

## Task Would you mind telling me which call this test gave Nc1ccc(Cc2ccc(N)cc2)cc1 ?
## Result yes (1)

## Task Hello, I am checking results. What call was entered for c1cc2ccc3ccc4ccc5ccc6ccc1c1c2c3c4c5c61 ?
## Result yes (1)

New cases:
## Task Name the outcome recorded for CC(=O)Nc1ccc(Oc2ccc(N)cc2)cc1 in the assay.
## Result yes (1)

## Task Outcome logged for O=C/C(Br)=C/c1ccccc1 in this assay:
## Result yes (1)

## Task Given Nc1ccc(S(=O)(=O)c2ccc(N)cc2)cc1 , state the outcome it received in this test.
## Result no (0)

====

# Tested on: CCRIS mutagenicity, Ames/micronucleus/aberration tests
# methodSummary: CCRIS mutagenicity studies
# measurementSetup: End Point: IN VIVO MICRONUCLEUS; Test System: BONE MARROW POLYCHROMATIC ERYTHROCYTES; Species: MOUSE; Strain/Sex: DDY/MALE; Route: IP
Calls of active or inactive are those of the source. No rule for the calls is given here.
Log the outcome using a class from 1.0 = active, 0.0 = inactive

Example entries begin here.
## Task Answer briefly: the call reported for O=NO in this assay.
## Result 0.0

## Task How did this test come out for Cc1cc2nc3c(=O)[nH]c(=O)nc-3n(C[C@H](O)[C@H](O)[C@H](O)CO)c2cc1C ?
## Result 0.0

## Task Recorded test call requested for CC(=O)c1c(=O)cc(C)oc1=O
## Result 1.0

Now consider a different compound.
## Task Write down the call the test reported for this compound. Item: CCN(Cc1cccc(S(=O)(=O)O)c1)c1ccc(C(=C2C=CC(=[N+](CC)Cc3cccc(S(=O)(=O)O)c3)C=C2)c2ccccc2S(=O)(=O)[O-])cc1
## Result 0.0

====

# System: CCRIS mutagenicity, Ames/micronucleus/aberration tests
# methodSummary: CCRIS mutagenicity studies
# measurementSetup: Test System: AMES SALMONELLA TYPHIMURIUM; Strain/Indicator: TA1537; Metabolic Activation: HAMSTER, LIVER, S-9, AROCLOR 1254; Method: PREINCUBATION
Activity calls are given as the source filed them. The rule behind the calls is not given here.
Returns: one label drawn from active, inactive

Observe how each entry below is paired with its result.
## Task Recorded test call requested for C=CC(=O)NC(C)(C)CC(C)=O
## Result inactive

## Task Per the records of this test, what outcome belongs to CC(=O)OCC(O)CO (centres undefined) ?
## Result inactive

## Task Dear all, I need the recorded test outcome for C[Si](Cl)Cl , thank you.
## Result inactive

## Task What was the test verdict on CC(O)CO (centres undefined) ?
## Result inactive

## Task Lab log entry: Oc1ccc(Cl)cc1Cl — outcome as called in the assay?
## Result inactive

Now take the following compound into account.
## Task # lookup: test call for O=[N+]([O-])c1cc([As](=O)(O)O)ccc1O
## Result inactive

====

# Test system: CCRIS mutagenicity, Ames/micronucleus/aberration tests
# methodSummary: CCRIS mutagenicity studies
# measurementSetup: Test System: AMES SALMONELLA TYPHIMURIUM; Strain/Indicator: TA98; Metabolic Activation: NONE; Method: PREINCUBATION
# Source text: The CCRIS database contains chemical records with carcinogenicity, mutagenicity, tumor promotion, and tumor inhibition test results. It was developed by the National Cancer Institute (NCI). Data are derived from studies cited in primary journals, current awareness tools, NCI reports, and other sources. Test results have been reviewed by experts in carcinogenesis and mutagenesis. CCRIS provides historical information from the years 1985 - 2011. It is no longer updated. […]
Activity calls are given as the source filed them. The rule behind the calls is not given here.
Parameter call: string, one of active, inactive

Worked examples, 10 compounds total:
## Task Would you mind telling me which call this test gave ON=C1CCCCC1 ?
## Result inactive

## Task Returns: the outcome recorded for O=C1CN(CCN2CC(=O)N(CN3CCOCC3)C(=O)C2)CC(=O)N1CN1CCOCC1 in this assay.
## Result active

## Task Name the outcome recorded for O=NO in the assay.
## Result inactive

## Task Could you check what this test reported for CC(=O)c1c(=O)cc(C)oc1=O ?
## Result inactive

## Task What did this assay record as the result for CC(=O)OCCC(C)C ?
## Result inactive

## Task What outcome does the record of this test show for O=C(O)CCCCCCCCC(=O)O ?
## Result inactive

## Task Call for entry COc1ccc(C=O)cc1 :
## Result inactive

## Task Hi, sorry to bother you, what did the test record for C=CC(=O)NCNC(=O)C=C ?
## Result inactive

## Task Test call, this compound: CCCC(=O)OCc1ccc([N+](=O)[O-])cc1
## Result inactive

## Task Kindly provide the recorded test outcome for the following compound: COc1ccc2c3c(cccc13)C(=O)N(C)C2=O
## Result inactive

New cases:
## Task For this compound, state the assay outcome: COc1cc(-c2ccc(N/N=C3\C(=O)c4c(O)cc(S(=O)(=O)O)cc4C=C3S(=O)(=O)O)c(OC)c2)ccc1N/N=C1\C(=O)c2c(O)cc(S(=O)(=O)O)cc2C=C1S(=O)(=O)O
## Result inactive

## Task Check the results log: what was the call for CC(O)CO (centres undefined) ?
## Result inactive

## Task Please let me know the test result on file for OC1c2cccc3c2C2(OC2C1O)c1ccc2ccccc2c1-3 (centres undefined) .
## Result active

## Task Answer briefly: the call reported for C[CH2][Hg][S]c1ccccc1C(=O)O in this assay.
## Result inactive

====

# Tested on: CCRIS mutagenicity, Ames/micronucleus/aberration tests
# methodSummary: CCRIS mutagenicity studies
# measurementSetup: Test System: AMES SALMONELLA TYPHIMURIUM; Strain/Indicator: TA98; Metabolic Activation: HAMSTER, LIVER, S-9, AROCLOR 1254; Method: STANDARD PLATE
Activity calls are given as the source filed them. No rule for the calls is given here.
A correct response names exactly one class from yes (1) = active, no (0) = inactive

Look over these answered cases.
## Task How did this test come out for CCCCCCCCCCCC(=O)OCCS(=O)(=O)O ?
## Result no (0)

## Task // param item: O=[N+]([O-])/C(Br)=C\c1ccccc1 ; yields the recorded call
## Result no (0)

## Task Assay outcome for Cc1ccc(N)c(S(=O)(=O)O)c1 : what was it?
## Result no (0)

## Task Each compound tested received a call. Report the one for ON=C1CCCCC1 .
## Result no (0)

## Task Please indicate how the test categorized O=Cc1ccccc1[N+](=O)[O-] .
## Result no (0)

Then this compound:
## Task Which result was noted for this compound in the test: [O-]/[N+](=N\O)c1ccccc1
## Result no (0)
